These data points were gathered from the supplement of paper PMC10567573.

Here, each record is paired with measured protein stability index data.
B1: TCAP (parent)
chain: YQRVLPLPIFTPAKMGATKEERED

- Variants of: B1
- Test description: protein stability index of a GFP-peptide fusion (GPS, HEK-293T) (PSI 1-6); higher = more stable;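 also: lentivirally expressed fusions sorted by FACS into six bins by GFP to DsRed ratio, PSI derived from sequencing read proportions per bin multiplied by bin number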
- Measurement setup: c terminus: a fixed tail appended
In your answer, state the number alone without any accompanying words.

>>> test_result("R3T")
2.05

Q. Query: protein stability index; subject: `E21D`
A. 2

Q. Query: protein stability index; subject: `K14F`
A. 2.04

Q. Query: protein stability index; subject: `A13F`
A. 2.04

Q. Query: protein stability index; subject: `R22C`
A. 2.04

Q. Query: protein stability index; subject: `P8A`
A. 1.96

Q. Query: protein stability index; subject: `A13Q`
A. 1.95

Q. Query: protein stability index; subject: `D24I`
A. 1.99

Q. Query: protein stability index; subject: `E23A`
A. 2.02
